target: T1, cynomolgus monkey BCMA (cynomolgus monkey, UniProt A0A2K5UD97 1-53); test: SPR, IgG immobilised, 37 C
T1 construct: Soluble analyte in SPR; construct not described; also called cyBCMA; Cyno BCMA
T1 sequence (A0A2K5UD97 entry or part of it): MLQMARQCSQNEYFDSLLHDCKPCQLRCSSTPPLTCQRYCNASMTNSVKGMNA

{"binder": "L3.PY/L1.AH/H2.QL (antibody, V domains shown, IgG) VH: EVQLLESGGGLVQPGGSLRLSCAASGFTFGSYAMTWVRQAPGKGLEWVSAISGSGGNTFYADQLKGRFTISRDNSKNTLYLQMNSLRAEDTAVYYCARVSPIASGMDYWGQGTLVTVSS VL: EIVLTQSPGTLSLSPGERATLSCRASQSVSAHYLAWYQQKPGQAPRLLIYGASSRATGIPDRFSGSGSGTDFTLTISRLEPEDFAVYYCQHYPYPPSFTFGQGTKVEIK", "units-of-measure": "nM", "Kd": 3.65}
{"binder": "L3.PY/L1.PS/H2.YQ (antibody, V domains shown, IgG) VH: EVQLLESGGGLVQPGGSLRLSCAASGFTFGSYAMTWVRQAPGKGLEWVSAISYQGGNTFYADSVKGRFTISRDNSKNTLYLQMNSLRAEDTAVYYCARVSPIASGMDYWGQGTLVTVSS VL: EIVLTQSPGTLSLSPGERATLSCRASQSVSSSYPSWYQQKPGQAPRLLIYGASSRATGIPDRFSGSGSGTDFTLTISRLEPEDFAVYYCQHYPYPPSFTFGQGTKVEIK", "units-of-measure": "nM", "Kd": 1.87}
{"binder": "L3.PY/L1.PS/H2.QL (antibody, V domains shown, IgG) VH: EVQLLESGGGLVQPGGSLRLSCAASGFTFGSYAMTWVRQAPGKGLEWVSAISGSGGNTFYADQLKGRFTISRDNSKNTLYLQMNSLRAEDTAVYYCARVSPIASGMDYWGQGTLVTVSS VL: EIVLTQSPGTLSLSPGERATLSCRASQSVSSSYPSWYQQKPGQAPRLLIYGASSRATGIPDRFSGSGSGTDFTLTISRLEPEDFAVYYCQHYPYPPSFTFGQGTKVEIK", "units-of-measure": "nM", "Kd": 0.97}
